- tested-target: T1, human OX40 on cells (human, UniProt P43489 29-277)
- T1 sequence (looked up): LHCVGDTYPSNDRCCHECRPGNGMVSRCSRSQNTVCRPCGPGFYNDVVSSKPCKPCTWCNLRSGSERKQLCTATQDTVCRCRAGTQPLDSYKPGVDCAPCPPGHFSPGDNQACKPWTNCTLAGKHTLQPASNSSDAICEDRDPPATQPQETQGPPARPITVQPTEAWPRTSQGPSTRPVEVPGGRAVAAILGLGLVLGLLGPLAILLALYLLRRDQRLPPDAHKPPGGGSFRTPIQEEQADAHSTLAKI
- assay-comment: cell-based or functional assay
Assign Mean, normalized IL-2 release, SEB assay to each entry below.
Response field accepts a number only; no unit should be typed.

# Mean, normalized IL-2 release, SEB assay of recombinant human OX40L-Fc protein (Fc fusion, not shown: a dimerising Fc or GST; small tags and cut ends) QVSHRYPRIQSIKVQFTEYKKEKGFILTSQKEDEIMKVQNNSVIINCDGFYLISLKGYFSQEVNISLHYQKDEEPLFQLKKVRSVNSLMVASLTYKDKVYLNVTTDNTSLDDFHVNGGELILIHQNPGEFCVL = 4.26

# Mean, normalized IL-2 release, SEB assay of 106-222 IgG1 (antibody, V domains shown) VH: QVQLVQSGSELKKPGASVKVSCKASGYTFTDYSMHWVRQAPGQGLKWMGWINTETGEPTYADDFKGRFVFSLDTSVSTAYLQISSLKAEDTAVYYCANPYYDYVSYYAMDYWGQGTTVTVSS VL: DIQMTQSPSSLSASVGDRVTITCKASQDVSTAVAWYQQKPGKAPKLLIYSASYLYTGVPSRFSGSGSGTDFTFTISSLQPEDIATYYCQQHYSTPRTFGQGTKLEIKR = 0.86

# Mean, normalized IL-2 release, SEB assay of 7H11 IgG1 LALA (antibody, V domains shown) VH: QVQLVQSGAEVKKPGASVKVSCKASGYTFTRYYMHWVRQAPGQGLEWMGWIYPGDGSTKYAQKFQGRVTMTRDTSISTAYMELSRLRSDDTAVYYCAREYGNYDYWGQGTLVTVSS VL: DIVMTQSPDSLAVSLGERATINCKSSQSLLNSGNQKNYLAWYQQKPGQPPKLLIYGASTRESGVPDRFSGSGSGTDFTLTISSLQAEDVAVYYCQNDHSYPYTFGQGTKLEIKR = 0.81

# Mean, normalized IL-2 release, SEB assay of 9B12 IgG1 (antibody, V domains shown, also called OX40mab24) VH: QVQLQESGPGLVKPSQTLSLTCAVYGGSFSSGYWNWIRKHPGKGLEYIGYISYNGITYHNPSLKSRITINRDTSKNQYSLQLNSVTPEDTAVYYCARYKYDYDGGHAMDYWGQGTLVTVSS VL: DIQMTQSPSSLSASVGDRVTITCRASQDISNYLNWYQQKPGKAPKLLIYYTSKLHSGVPSRFSGSGSGTDYTLTISSLQPEDFATYYCQQGSALPWTFGQGTKVEIKR = 2.36

# Mean, normalized IL-2 release, SEB assay of 11D4 IgG2 (antibody, V domains shown) VH: EVQLVESGGGLVQPGGSLRLSCAASGFTFSSYSMNWVRQAPGKGLEWVSYISSSSSTIDYADSVKGRFTISRDNAKNSLYLQMNSLRDEDTAVYYCARESGWYLFDYWGQGTLVTVSS VL: DIQMTQSPSSLSASVGDRVTITCRASQGISSWLAWYQQKPEKAPKSLIYAASSLQSGVPSRFSGSGSGTDFTLTISSLQPEDFATYYCQQYNSYPPTFGGGTKVEIKR = 1.87
